- test_protocol: Therapeutic index, ratio of IC50 for human H9 cells to EC50 for HIV1
- Type: cell-based
- recorded_conditions: read-out: Ratio IC50/EC50
Entries and their measured selectivity ratio follow.
value_kind: selectivity ratio

compound | value_kind | result
CCCc1cc(=O)oc2c3c(c4c(c12)OC(C)(C)C=C4)O[C@@H](C)[C@H](C)[C@@H]3O [COSTATOLIDE] | selectivity ratio | 44.5
CCCc1cc(=O)oc2c3c(c4c(c12)OC(C)(C)C=C4)O[C@@H](C)[C@@H](C)[C@@H]3O [CALANOLIDE F] | selectivity ratio | 4.5
